Numbers sourced from patent US20240140938A1.

Biological target: human DGAT2 (hDGAT2) (Homo sapiens (Human), UniProt Q96PD7)
Sequence (Q96PD7 whole entry): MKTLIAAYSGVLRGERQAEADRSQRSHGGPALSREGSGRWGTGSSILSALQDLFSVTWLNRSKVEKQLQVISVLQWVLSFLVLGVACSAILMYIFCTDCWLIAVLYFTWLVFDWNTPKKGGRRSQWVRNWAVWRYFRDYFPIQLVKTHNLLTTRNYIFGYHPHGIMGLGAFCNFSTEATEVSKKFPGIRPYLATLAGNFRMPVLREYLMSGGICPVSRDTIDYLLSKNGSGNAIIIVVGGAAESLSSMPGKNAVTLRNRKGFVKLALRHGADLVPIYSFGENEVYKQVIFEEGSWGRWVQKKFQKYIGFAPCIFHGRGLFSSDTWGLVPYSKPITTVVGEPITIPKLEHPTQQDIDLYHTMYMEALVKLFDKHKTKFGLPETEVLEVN
Assay: DGAT2 Enzymatic Activity Assay
Type: biochemical
Details: hDGAT2 Sf-9 membrane prep; 13C18-triolein product by LC/MS/MS; 25 μM diolein, 5 μM 13C oleoyl-CoA
property: IC50 (nM)
# number only, unit nM dropped from output

Sample records with IC50:
-- ask Read off the recorded IC50 for CC(n1nc(-c2cc(OCC(F)(F)F)ncc2F)c2c1C[C@H](C(=O)NC1(C#N)CCS(=O)(=O)CC1)CC2)C(C)(C)O (single isomer, unassigned) [Example 113b]
-- reply 70.3

-- ask Read off the recorded IC50 for CCOc1cc(-c2nn(C(C)C(F)(F)F)c3c2CC[C@@H](C(=O)NC2(C)CCS(=O)(=O)CC2)C3)c(F)cn1 (single isomer, unassigned) [Example 53a]
-- reply 162

-- ask Read off the recorded IC50 for CC(C)n1nc(-c2cccc(OC(F)F)c2)c2c1CC(C(=O)NC1(C)CC(F)(F)C1)CO2 (racemic)
-- reply 56.4

-- ask Read off the recorded IC50 for `CC(C)n1nc(-c2cc(OC(F)F)ccc2F)c2c1C[C@H](C(=O)NC1(C)CCS(=O)(=O)CC1)CC2`
-- reply 5.5

-- ask Read off the recorded IC50 for `CC1(NC(=O)[C@@H]2CCc3c(-c4cccc(OC(F)F)c4)nn(-c4ccc(F)cn4)c3C2)CS(=O)(=O)C1`
-- reply 5.1

Continuing:
-- ask Read off the recorded IC50 for CC(C(F)F)n1nc(-c2cc(OC(F)F)ccc2F)c2c1C[C@H](C(=O)NC1(C)CS(=O)(=O)C1)CC2 (single isomer, unassigned) [Example 48b]
-- reply 19.8

---

Biological target: UniProt Q96PD7
Assay: DGAT2 Enzymatic Activity Assay
Assay type: biochemical
Details: hDGAT2 Sf-9 membrane prep; 13C18-triolein product by LC/MS/MS; 25 μM diolein, 5 μM 13C oleoyl-CoA
Entries whose IC50 is below 5 nM take t; entries at or above 5 nM take f.

-- ask I wonder whether `CC1(NC(=O)[C@@H]2CCc3c(-c4cccc(OC(F)F)c4)nn(C4CCOCC4)c3C2)CS(=O)(=O)C1` has IC50 below 5 nM. Can you tell?
-- reply f

Continuing:
-- ask I wonder whether `CCc1ccc(F)c(-c2nn(C(C)C)c3c2CC[C@@H](C(=O)NC2(C)CS(=O)(=O)C2)C3)c1` has IC50 below 5 nM. Can you tell?
-- reply f

-- ask I wonder whether CC(n1nc(-c2cc(OCC(F)(F)F)ncc2F)c2c1C[C@H](C(=O)NC1(C)CCS(=O)(=O)CC1)CC2)C(C)(C)O (single isomer, unassigned) [Example 107a] has IC50 below 5 nM. Can you tell?
-- reply t

-- ask I wonder whether `CC(C)n1nc(-c2cncc(OC(F)(F)C(F)F)c2)c2c1C[C@H](C(=O)NC1(C)CCS(=O)(=O)CC1)CC2` has IC50 below 5 nM. Can you tell?
-- reply f

-- ask I wonder whether CC(C)N1CCC(NC(=O)[C@@H]2CCc3c(-c4cc(OC(F)F)ccc4F)nn(C(C)C)c3C2)C1=O (stereo partly drawn) has IC50 below 5 nM. Can you tell?
-- reply f

---

Target: human DGAT2 (hDGAT2) (Homo sapiens (Human), UniProt Q96PD7)
Assay: DGAT2 Enzymatic Activity Assay
Format: biochemical
Settings: hDGAT2 Sf-9 membrane prep; 13C18-triolein product by LC/MS/MS; 25 μM diolein, 5 μM 13C oleoyl-CoA
pIC50: −log10 of the molar value.
Give Satisfied when the value for pIC50 is at least 6. Give Not satisfied when it is less.

Consider the worked cases shown below.
-- ask For this compound, is measured pIC50 6 or higher? CCOc1cc(-c2nn(C(C)C(C)(C)O)c3c2CC[C@@H](C(=O)N[C@@]2(C)CCS(=O)(=O)C2)C3)c(F)cn1 (single isomer, unassigned) [Example 108b]
-- reply Satisfied

-- ask For this compound, is measured pIC50 6 or higher? C[C@]1(NC(=O)[C@H]2CCc3c(-c4ccccc4Cl)nn(-c4ccc(F)cc4)c3C2)CCS(=O)(=O)C1 (single isomer, unassigned) [Example 1a]
-- reply Not satisfied

-- ask For this compound, is measured pIC50 6 or higher? CC(C)n1nc(-c2cncc(OC(F)F)c2)c2c1C[C@H](C(=O)NC1(C)CCS(=O)(=O)CC1)CC2 [Example 56]
-- reply Satisfied

# input for lookup
-- ask For this compound, is measured pIC50 6 or higher? CC(C1CC1)n1nc(-c2cc(OC(F)F)ccc2F)c2c1C[C@H](C(=O)NC1(C)CS(=O)(=O)C1)CC2 (single isomer, unassigned) [Example 58b]
-- reply Satisfied

---

Molecular target: human DGAT2 (hDGAT2) (Homo sapiens (Human), UniProt Q96PD7)
Assay: DGAT2 Enzymatic Activity Assay
Assay type: biochemical
Conditions: unit given as nm; hDGAT2 Sf-9 membrane prep; 13C18-triolein product by LC/MS/MS
property: IC50 (nM)
# number only, unit nM dropped from output

Sample records with IC50:
-- ask Read off the recorded IC50 for CC1(NC(=O)C2COc3c(-c4cccc(OC(F)F)c4)nn(-c4ccc(F)cn4)c3C2)CCS(=O)(=O)C1 (stereo not shown) [Example 118]
-- reply 0.44

-- ask Read off the recorded IC50 for CC1(NC(=O)C2CCc3c(-c4ccccc4Cl)nn(-c4ccc(F)cc4)c3C2)CCS(=O)(=O)C1 (stereo not shown) [Example 1]
-- reply 37.9

-- ask Read off the recorded IC50 for CC1(NC(=O)C2Cc3c(c(-c4cccc(OC(F)F)c4)nn3C3CCOCC3)C(F)(F)C2)CCS(=O)(=O)C1 (stereo not shown) [Example 117]
-- reply 499

Next item in the queue.
-- ask Read off the recorded IC50 for CC1(NC(=O)[C@@H]2CCc3c(-c4cc(OC(F)F)ccc4F)nn(S(C)(=O)=O)c3C2)CS(=O)(=O)C1 [Example 115]
-- reply 108

---

Target: human DGAT2 (hDGAT2) (Homo sapiens (Human))
Experiment: DGAT2 Enzymatic Activity Assay
Type: biochemical
Settings: hDGAT2 Sf-9 membrane prep; 13C18-triolein product by LC/MS/MS; 25 μM diolein, 5 μM 13C oleoyl-CoA
IC50 reference
# number only, unit µM dropped from output

-- ask Read off the recorded IC50 for `CC(C)n1nc(-c2cc(OC(F)F)cnc2C(F)F)c2c1C[C@H](C(=O)NC1(C)CCS(=O)(=O)CC1)CC2`
-- reply 0.296

Continuing:
-- ask Read off the recorded IC50 for `[2H]C([2H])([2H])C([2H])(n1nc(-c2cc(OCC)ncc2F)c2c1C[C@H](C(=O)NC1(C)CCS(=O)(=O)CC1)CC2)C([2H])([2H])[2H]`
-- reply 0.0659

-- ask Read off the recorded IC50 for `C[C@]1(NC(=O)[C@@H]2CCc3c(-c4cccc(OC(F)F)c4)nn(C(=O)c4ccccc4)c3C2)CCS(=O)(=O)C1`
-- reply 2.74

-- ask Read off the recorded IC50 for CC(C)n1nc(-c2cccc(OC(F)F)c2)c2c1CC(C(=O)NC1(C)CS(=O)(=O)C1)OC2 (single isomer, unassigned) [EX-134b]
-- reply 7.61

-- ask Read off the recorded IC50 for CCOC(=O)N1CCC(C)(NC(=O)[C@@H]2CCc3c(-c4cc(OC(F)F)ccc4F)nn(C(C)C)c3C2)C1 (stereo partly shown)
-- reply 0.061

-- ask Read off the recorded IC50 for CC1(NC(=O)C2COc3c(-c4cccc(OC(F)F)c4)nn(-c4ccc(F)cn4)c3C2)CS(=O)(=O)C1 (racemic)
-- reply 0.00033

-- ask Read off the recorded IC50 for `CCOc1cc(-c2nn(C(C)C)c3c2CC[C@@H](C(=O)NC2(C)CCS(=O)(=O)CC2)C3)c(F)cn1`
-- reply 0.144

---

Target: human DGAT2 (hDGAT2) (Homo sapiens (Human), UniProt Q96PD7)
Assay: DGAT2 Enzymatic Activity Assay
Assay type: biochemical
Conditions: hDGAT2 Sf-9 membrane prep; 13C18-triolein product by LC/MS/MS; 25 μM diolein, 5 μM 13C oleoyl-CoA
pIC50: −log10 of the molar value.
pIC50 reference

Sample records with pIC50:
-- ask Read off the recorded pIC50 for `CC(=O)n1nc(-c2cccc(OC(F)F)c2)c2c1C[C@H](C(=O)N[C@@]1(C)CCS(=O)(=O)C1)CC2`
-- reply < 5.00

-- ask Read off the recorded pIC50 for `CC(C)(N)c1cccc(-c2nn(-c3ccc(F)cc3)c3c2CC[C@@H](C(=O)N[C@@]2(C)CCS(=O)(=O)C2)C3)c1`
-- reply < 5.00

Continuing:
-- ask Read off the recorded pIC50 for `CC(C)n1nc(-c2cccc(C3(C#N)CC3)c2)c2c1C[C@H](C(=O)NC1(C)CS(=O)(=O)C1)CC2`
-- reply < 5.00

---

Molecular target: human DGAT2 (hDGAT2) (Homo sapiens (Human), UniProt Q96PD7)
Experiment: DGAT2 Enzymatic Activity Assay
Type: biochemical
Details: hDGAT2 Sf-9 membrane prep; 13C18-triolein product by LC/MS/MS; 25 μM diolein, 5 μM 13C oleoyl-CoA
pIC50: −log10 of the molar value.
property: pIC50

-- ask Read off the recorded pIC50 for `CC(C)n1nc(-c2cc(C#N)ccc2F)c2c1C[C@H](C(=O)NC1(C)CS(=O)(=O)C1)CC2`
-- reply < 5.00

-- ask Read off the recorded pIC50 for `CNS(=O)(=O)CCNC(=O)[C@@H]1CCc2c(-c3cccc(OC(F)F)c3)nn(C(C)C)c2C1`
-- reply < 5.00

Continuing:
-- ask Read off the recorded pIC50 for `CC(C)n1nc(-c2cncc(OC(F)F)c2)c2c1C[C@H](C(=O)N[C@@H](C)CN1CCO[C@H](C)C1)CC2`
-- reply < 5.00
